# ASSAY_METHOD_TEXT: Single and multiple dose pharmacokinetics, 4 μg QD vs 8 μg TIW, subjects in general good health (Example 5)
# Format: in vivo, human
# RECORDED_CONDITIONS: human, plasma, oral, 4 ug, Regimen A 4 μg QD, Study Day 1; read-out: AUC0-t
VALUE_KIND: AUC(0-t)

Prompt line: Name the recorded AUC(0-t) of the item C[C@H](/C=C/[C@H](C)C(C)(C)O)[C@H]1CC[C@H]2/C(=C/C=C3C[C@@H](O)C[C@H](O)C3)CCC[C@]12C [Paricalcitol] in your answer.
Response line: 0.701 ng·h/mL

* * *

# ASSAY_METHOD_TEXT: Single and multiple dose pharmacokinetics, 4 μg QD vs 8 μg TIW, subjects in general good health (Example 5)
# Assay type: in vivo, human
# RECORDED_CONDITIONS: human, plasma, oral, 4 ug, Regimen A 4 μg QD, Study Day 13
VALUE_KIND: Tmax (h)
Answer with a number only, understood to be in h.

Prompt line: Tell me its Tmax given C[C@H](/C=C/[C@H](C)C(C)(C)O)[C@H]1CC[C@H]2/C(=C/C=C3C[C@@H](O)C[C@H](O)C3)CCC[C@]12C [Paricalcitol] as the entry.
Response line: 4.5

The measured values listed here are drawn from patent US20060009425A1.
